molecular target: Cannabinoid receptor 1 (Homo sapiens); assay: Inverse agonist activity at human CB1 receptor expressed in HEK293 cells assessed as forskolin-stimulated cAMP accumulation after 30 mins by HTRF assay
Sequence (P21554 whole entry): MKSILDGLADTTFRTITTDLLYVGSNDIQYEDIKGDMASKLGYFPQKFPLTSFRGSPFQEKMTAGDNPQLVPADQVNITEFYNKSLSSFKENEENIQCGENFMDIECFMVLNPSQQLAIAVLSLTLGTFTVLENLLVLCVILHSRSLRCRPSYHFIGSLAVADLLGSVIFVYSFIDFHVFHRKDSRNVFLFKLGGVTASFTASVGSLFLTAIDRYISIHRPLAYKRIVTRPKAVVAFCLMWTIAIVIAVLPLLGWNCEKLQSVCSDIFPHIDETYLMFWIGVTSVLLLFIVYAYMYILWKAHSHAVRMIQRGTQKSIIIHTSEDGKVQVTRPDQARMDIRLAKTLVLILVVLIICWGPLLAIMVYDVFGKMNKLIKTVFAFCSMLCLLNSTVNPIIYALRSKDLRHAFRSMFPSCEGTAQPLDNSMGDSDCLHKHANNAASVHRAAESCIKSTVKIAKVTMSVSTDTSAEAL
VALUE_KIND: EC50 (nM)
Give bare numbers, in nM.

O=C(NC(CO)(CO)CO)c1ccc(S(=O)(=O)N2CCC(Nc3ncnc4ccc(C(c5ccc(Cl)cc5)c5ccc(Cl)cc5)cc34)CC2)cc1	7.8

Now, please, on to the next compound.
Q) For Cannabinoid receptor 1 (Homo sapiens), provide EC50 of O=S(=O)(N1CCC(Nc2ncnc3ccc(C(c4ccc(Cl)cc4)c4ccc(Cl)cc4)cc23)CC1)C(F)(F)F please.
A) 4.6
